biological target: SRSF protein kinase 1 (Homo sapiens); details: at 0.1 µM;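 also: values are mean percent inhibition of SRPK1 kinase, measured in the GSK PKIS screening panel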
observedProperty: inhibition

Here's what some known entries look like.
# compoundSmiles, inhibition
data = [
    ("FC(F)(F)c1ccc(-c2nn3ncccc3c2-c2ccnc(Nc3ccc4c(c3)OCCO4)n2)cc1", "8.18%"),
    ("Nc1nccc(-c2c(-c3ccc(F)cc3)nn3cc(C(F)(F)F)ccc23)n1", "-0.96%"),
    ("CN1CCN(C(=O)c2ccc(NC(=O)Nc3ccc(N(C)c4ccnc(Nc5ccc(CS(C)(=O)=O)cc5)n4)cc3)cc2)CC1", "-1.98%"),
    ("CC(C)c1ccc2c(c1)NC(=O)/C2=N/Nc1ccc(S(N)(=O)=O)cc1", "-0.89%"),
    ("COC(=O)c1ccc2c(c1)C(=Cc1cc(Br)c(O)c(Br)c1)C(=O)N2", "-4.19%"),
]

**Q:** inhibition lookup needed for `Cc1ccc2c(c1)/C(=N/Nc1ccc(S(N)(=O)=O)cc1)C(=O)N2` , thanks.
**A:** -2.83%

**Q:** Another molecule: `NS(=O)(=O)c1cccc(Nc2cc(-c3ccc(F)cc3)n[nH]2)c1`
**A:** -1.05%

**Q:** Another molecule: `O=S(=O)(CCOCc1ccc(-c2ccc3ncnc(Nc4ccc(OCc5cccc(F)c5)c(Cl)c4)c3c2)o1)c1ccccc1`
**A:** -2.76%

**Q:** Another molecule: `COc1ccc2ncnc(Nc3ccc(OCc4ccccc4)cc3)c2c1`
**A:** -1.2%

**Q:** Another molecule: `CN(C)CCCn1c(-c2nonc2N)nc2cnccc21`
**A:** -2.65%

###

target: Dual specificity mitogen-activated protein kinase kinase 1 (Homo sapiens); details: at 0.1 µM;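 also: reported value is a mean percent inhibition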
Would you mind classing the entries by inhibition? Ranges: 1 = under 2%, 2 = from 2% up to 4%, 3 = 4% and over

Sample answers from the record:
# compound, targetDesc, category
measured = [
    ("Cc1ccc2c(-c3ccnc(Nc4ccc5c(c4)OCCO5)n3)c(-c3ccc(C(F)(F)F)cc3)nn2n1", "Dual specificity mitogen-activated protein kinase kinase 1 (Homo sapiens)", 1),
    ("CS(=O)(=O)Nc1cccc(-c2ccc3c(NC(=O)C4CC4)n[nH]c3c2)c1", "Dual specificity mitogen-activated protein kinase kinase 1 (Homo sapiens)", 1),
    ("c1ccc(Cc2nc3ccc(Nc4ncnc5ccccc45)cc3[nH]2)cc1", "Dual specificity mitogen-activated protein kinase kinase 1 (Homo sapiens)", 2),
    ("CCS(=O)(=O)c1ccc(OC)c(Nc2ncc(-c3cccc(OC)c3)o2)c1", "Dual specificity mitogen-activated protein kinase kinase 1 (Homo sapiens)", 2),
]

**Q:** Record CCCN1CCCC(c2ccc(Nc3nc(Nc4cc(F)ccc4C(N)=O)c4cc[nH]c4n3)c(OC)c2)C1 (stereo not given) — which class?
**A:** 3

**Q:** Another compound: `Cc1ccc2c(-c3ccnc(Nc4cccc(C(F)(F)F)c4)n3)c(-c3ccccc3)nn2n1`
**A:** 3

**Q:** Another compound: `OCc1ccc(-c2nc(-c3ccccn3)c(-c3ccc4c(c3)OCO4)[nH]2)cc1`
**A:** 3

**Q:** Another compound: `N#Cc1c(NC(=O)c2ccccc2F)sc2c1CCCC2`
**A:** 1

**Q:** Another compound: `FC(F)(F)c1ccc(-c2nn3ncccc3c2-c2ccnc(Nc3ccc4c(c3)OCCO4)n2)cc1`
**A:** 1

**Q:** Another compound: `Cc1ccc(NC(=O)CC2CC2)cc1-c1ccc(C(=O)NCC2CC2)cc1`
**A:** 2

###

The following compounds are listed with their measured inhibition values.
target: Aurora kinase C (Homo sapiens) (UniProt Q9UQB9); details: at 1 µM;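 also: reported value is a mean inhibition of Aurora-C from the GSK PKIS screening panel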
Sequence (Q9UQB9 whole entry): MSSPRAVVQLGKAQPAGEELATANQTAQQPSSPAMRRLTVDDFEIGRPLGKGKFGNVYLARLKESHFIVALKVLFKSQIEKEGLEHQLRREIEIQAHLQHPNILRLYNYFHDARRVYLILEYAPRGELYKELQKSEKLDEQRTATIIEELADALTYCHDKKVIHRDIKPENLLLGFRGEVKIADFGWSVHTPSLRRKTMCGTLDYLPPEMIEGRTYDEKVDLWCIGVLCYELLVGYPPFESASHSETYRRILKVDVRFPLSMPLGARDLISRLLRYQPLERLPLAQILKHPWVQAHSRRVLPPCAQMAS
All answers are understood in %, so give the number only.

# compoundSmiles, measuredResult
measured = [
    ("CN(C)C(=O)O[C@@H]1CN[C@@H](C#Cc2cc3ncnc(Nc4ccc(OCc5cccc(F)c5)c(Cl)c4)c3s2)C1", 14),
    ("COC(=O)Nc1nc2cc(Oc3ccc(NC(=O)Nc4cccc(Br)c4)cc3)ccc2[nH]1", 42.5),
    ("Cc1ccc(Nc2ccnc(Nc3cccc(C(N)=O)c3)n2)cc1O", 85.4),
    ("NS(=O)(=O)c1ccc(N/N=C2\\C(=O)Nc3ccc(Cl)cc32)cc1", 5.64),
    ("CC(C)c1ccc2c(c1)NC(=O)/C2=N/Nc1ccc(S(N)(=O)=O)cc1", 6.7),
]

**Q:** inhibition lookup needed for `CCn1c(-c2nonc2N)nc2c(C#CC(C)(C)O)nc(OCCNC)cc21` , thanks.
**A:** 3.76

**Q:** Another compound: `c1ccc(Cc2nc3ccc(Nc4ncnc5ccccc45)cc3[nH]2)cc1`
**A:** 7.02

**Q:** Another compound: `NS(=O)(=O)c1ccc(-c2cc3ccncc3cc2OCc2ccccc2)cc1`
**A:** -6.92

**Q:** Another compound: `CN(c1ccc(NC(=O)Nc2ccc(OC(F)(F)F)cc2)cc1)c1ccnc(Nc2cccc(S(N)(=O)=O)c2)n1`
**A:** 96.5

**Q:** Another compound: `CCn1c(-c2nonc2N)nc2ccc(F)cc21`
**A:** -2.72

###

molecular target: Protein kinase C eta type (Homo sapiens); conditions: at 0.1 µM;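 also: values are the mean percent inhibition of PKC-eta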
observedProperty: inhibition (%)
All answers are understood in %, so give the number only.

Here's what some known entries look like.
# compoundSmiles, inhibition (%)
measured = [
    ("COc1cc2ncnc(Nc3ccc(C)c(O)c3)c2cc1OC", 3.76),
    ("Cc1ccc(NC(=O)CC2CC2)cc1-c1ccc(C(=O)NCC2CC2)cc1", 3.52),
]

**Q:** inhibition lookup needed for `Cc1ccc(C(=O)NC2CC2)cc1-c1ccc2[nH]ncc2c1` , thanks.
**A:** -4.21

**Q:** Another compound: `CN(C)CCCn1c(-c2nonc2N)nc2cnccc21`
**A:** 6.38

**Q:** Another compound: `C[C@@H](Oc1cc(-n2cnc3ccc(OCC4CCN(C)CC4)cc32)sc1C(N)=O)c1ccccc1C(F)(F)F`
**A:** -5.73

**Q:** Another compound: `COc1cc2ncnc(Nc3ccc4c(cnn4Cc4ccccc4)c3)c2cc1OC`
**A:** 5.6

**Q:** Another compound: `c1ccc(Nc2ncc(-c3ccccc3)o2)cc1`
**A:** 2.48

**Q:** Another compound: `NS(=O)(=O)c1ccc(N/N=C2\C(=O)Nc3ccc(Cl)cc32)cc1`
**A:** 4.13

**Q:** Another compound: `Cc1cc(Cl)cc2c1NC(=O)C2=NNc1ccc(S(N)(=O)=O)cc1`
**A:** -0.95

**Q:** Another compound: `FC(F)(F)c1ccc(-c2nn3ncccc3c2-c2ccnc(Nc3ccc4c(c3)OCCO4)n2)cc1`
**A:** 1.27

**Q:** Another compound: `NS(=O)(=O)c1cccc(-c2cc3ccncc3cc2OCc2ccccc2)c1`
**A:** 2.45

###

The following molecules are listed with their measured inhibition values.
target: Tyrosine-protein kinase Tec (Homo sapiens) (UniProt P42680); conditions: at 0.1 µM
Sequence (P42680 whole entry): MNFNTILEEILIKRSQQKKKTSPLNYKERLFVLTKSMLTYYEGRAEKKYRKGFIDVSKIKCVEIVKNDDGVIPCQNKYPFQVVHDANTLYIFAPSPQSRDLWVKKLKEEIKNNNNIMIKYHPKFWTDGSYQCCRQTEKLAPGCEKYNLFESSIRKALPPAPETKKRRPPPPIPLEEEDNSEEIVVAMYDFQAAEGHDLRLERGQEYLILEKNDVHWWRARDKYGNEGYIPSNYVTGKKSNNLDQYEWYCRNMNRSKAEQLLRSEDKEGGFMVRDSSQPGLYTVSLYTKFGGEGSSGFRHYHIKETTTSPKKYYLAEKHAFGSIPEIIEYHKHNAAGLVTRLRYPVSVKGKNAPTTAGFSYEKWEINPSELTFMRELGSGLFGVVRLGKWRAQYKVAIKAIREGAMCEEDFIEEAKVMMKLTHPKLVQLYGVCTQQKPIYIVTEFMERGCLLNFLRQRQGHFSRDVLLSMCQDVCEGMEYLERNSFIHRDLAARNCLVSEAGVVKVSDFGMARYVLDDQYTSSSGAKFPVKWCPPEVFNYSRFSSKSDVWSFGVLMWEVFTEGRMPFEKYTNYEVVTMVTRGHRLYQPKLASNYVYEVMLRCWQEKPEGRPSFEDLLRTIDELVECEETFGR
Description: GSK_PKIS: TEC mean inhibition at 0.1 uM [Nanosyn]
All answers are understood in %, so give the number only.

Here's what some known entries look like.
# compoundSmiles, targetDesc, observedProperty, measuredResult
data = [
    ("CN(C)C(=O)O[C@H]1CN[C@H](C#Cc2cc3ncnc(Nc4ccc(OCc5cccc(F)c5)c(Cl)c4)c3s2)C1", "Tyrosine-protein kinase Tec (Homo sapiens) (UniProt P42680)", "inhibition", 3.98),
    ("NS(=O)(=O)c1ccc(NC=C2C(=O)Nc3ccc4ncsc4c32)cc1", "Tyrosine-protein kinase Tec (Homo sapiens) (UniProt P42680)", "inhibition", 5.73),
    ("NS(=O)(=O)c1cccc(-c2cc3ccncc3cc2OCc2ccccc2)c1", "Tyrosine-protein kinase Tec (Homo sapiens) (UniProt P42680)", "inhibition", 5.34),
    ("COc1cc2ncnc(Nc3ccc(C)c(O)c3)c2cc1OC", "Tyrosine-protein kinase Tec (Homo sapiens) (UniProt P42680)", "inhibition", 11.1),
]

Here's the next entry for you.
**Q:** Requested read-out inhibition, target or system Tyrosine-protein kinase Tec (Homo sapiens) (UniProt P42680), entry `COC(=O)Nc1nc2cc(Oc3ccc(NC(=O)Nc4cccc(Br)c4)cc3)ccc2[nH]1`
**A:** 4.37

###

biological target: Interleukin-1 receptor-associated kinase 4 (Homo sapiens) (UniProt Q9NWZ3); settings: at 1 µM;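 also: mean inhibition values, from the GSK PKIS dataset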
Sequence (Q9NWZ3 whole entry): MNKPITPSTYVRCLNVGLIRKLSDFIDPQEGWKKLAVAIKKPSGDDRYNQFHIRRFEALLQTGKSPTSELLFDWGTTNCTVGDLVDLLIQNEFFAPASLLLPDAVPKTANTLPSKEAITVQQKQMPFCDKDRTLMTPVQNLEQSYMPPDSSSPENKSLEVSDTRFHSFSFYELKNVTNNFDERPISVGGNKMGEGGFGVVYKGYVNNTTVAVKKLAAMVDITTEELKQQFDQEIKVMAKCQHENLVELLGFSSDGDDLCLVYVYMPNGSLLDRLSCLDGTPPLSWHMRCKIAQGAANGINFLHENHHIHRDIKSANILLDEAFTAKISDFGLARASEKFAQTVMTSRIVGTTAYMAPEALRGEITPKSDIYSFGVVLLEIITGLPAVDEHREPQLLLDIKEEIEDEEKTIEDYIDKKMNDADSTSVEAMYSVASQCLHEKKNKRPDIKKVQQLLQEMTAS
observedProperty: inhibition (%)
All answers are understood in %, so give the number only.

# compoundSmiles, targetDesc, measuredResult
records = [
    ("O=C(Nc1ccc(Oc2ccc3[nH]c(NC(=O)c4ccco4)nc3c2)cc1)Nc1cc(C(F)(F)F)ccc1F", "Interleukin-1 receptor-associated kinase 4 (Homo sapiens) (UniProt Q9NWZ3)", 0.94),
    ("Cc1nc(-c2ccccc2)n2nc(NCCCN3CCOCC3)ncc12", "Interleukin-1 receptor-associated kinase 4 (Homo sapiens) (UniProt Q9NWZ3)", 1.58),
    ("CN(C)C(=O)O[C@H]1CN[C@H](C#Cc2cc3ncnc(Nc4ccc(OCc5cccc(F)c5)c(Cl)c4)c3s2)C1", "Interleukin-1 receptor-associated kinase 4 (Homo sapiens) (UniProt Q9NWZ3)", 1.16),
    ("CS(=O)(=O)Nc1cccc(-c2ccc3c(NC(=O)C4CC4)n[nH]c3c2)c1", "Interleukin-1 receptor-associated kinase 4 (Homo sapiens) (UniProt Q9NWZ3)", 0.25),
    ("Cc1ccc(C(=O)NC2CC2)cc1-c1ccc2[nH]ncc2c1", "Interleukin-1 receptor-associated kinase 4 (Homo sapiens) (UniProt Q9NWZ3)", -0.57),
    ("COC(=O)c1cncc(/C=C/c2c(C)cc(O)cc2C)c1", "Interleukin-1 receptor-associated kinase 4 (Homo sapiens) (UniProt Q9NWZ3)", 1.8),
    ("ON=C1CCc2cc(-c3nc(C4CCNCC4)[nH]c3-c3ccncc3)ccc21", "Interleukin-1 receptor-associated kinase 4 (Homo sapiens) (UniProt Q9NWZ3)", -0.27),
    ("NC(=O)c1cccc(Nc2nccc(Nc3cccc(F)c3)n2)c1", "Interleukin-1 receptor-associated kinase 4 (Homo sapiens) (UniProt Q9NWZ3)", 2.52),
    ("COc1cc2ncnc(Nc3ccc4c(cnn4Cc4ccccc4)c3)c2cc1OC", "Interleukin-1 receptor-associated kinase 4 (Homo sapiens) (UniProt Q9NWZ3)", 1.32),
]

**Q:** inhibition lookup needed for `COc1ccc(-c2nn3ncccc3c2-c2ccnc(Nc3cccc(C(F)(F)F)c3)n2)cc1` , thanks.
**A:** 1.92
